TARGET_OR_TEST_SYSTEM: human importin α5 lacking the IBB domain (IMPα5ΔIBB) (human, UniProt P52294 73-538)
Sequence (P52294 73-538, stated change not applied): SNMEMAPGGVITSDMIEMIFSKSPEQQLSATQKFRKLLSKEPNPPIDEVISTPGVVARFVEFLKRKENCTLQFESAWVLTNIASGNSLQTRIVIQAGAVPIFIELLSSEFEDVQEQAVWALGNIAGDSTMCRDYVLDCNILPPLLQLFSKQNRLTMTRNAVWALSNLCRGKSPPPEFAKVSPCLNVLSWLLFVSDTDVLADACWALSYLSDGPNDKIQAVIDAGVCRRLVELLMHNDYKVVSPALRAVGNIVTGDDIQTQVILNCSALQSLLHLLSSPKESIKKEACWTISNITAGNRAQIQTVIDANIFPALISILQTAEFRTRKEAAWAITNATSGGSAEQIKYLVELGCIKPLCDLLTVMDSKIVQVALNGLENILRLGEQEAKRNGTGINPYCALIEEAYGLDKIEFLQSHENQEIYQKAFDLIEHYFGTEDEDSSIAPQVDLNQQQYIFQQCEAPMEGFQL
ASSAY_REMARKS: native gel or EMSA; 1.5% agarose gel in TB buffer (0.45 mM tris, 0.45 mM boric acid, pH 8.5), 70 V for 2 h; IMPαΔIBB ± FITC-cNLS peptide; UV image for the peptide, Coomassie for the protein
ASSAY_CONDITIONS: both partners purified
Primed or numbered codes have the meaning given here. Where no end group is shown, it is not given here. FITC′ = fluorescein isothiocyanate; Ahx = NCCCCCC(=O)O
PROPERTY: binding result

>>> measured_result("{FITC′-Ahx}-MFASDDENTGSQHSTPPKKKKKV (also called JCPyV LTA cNLS; JCPyV LTA monopartite cNLS) [JCPyV LTA NLS peptide]")
"binds"
>>> measured_result("{FITC′-Ahx}-PKKRPRESSSNSTCTPPKRPRNF (also called MWPyV LTA cNLS; MWPyV LTA bipartite cNLS) [MWPyV LTA NLSbip peptide]")
"binds"
>>> measured_result("{FITC′-Ahx}-KRTREDDEEPQCSQATPPKKKKD (also called WUPyV LTA cNLS; WUPyV LTA bipartite cNLS) [WUPyV LTA NLSbip peptide]")
"binds"
>>> measured_result("{FITC′-Ahx}-PFSRKRKFGGSRSSASSASSASFTSTPPKPKKNRE (also called MCPyV LTA cNLS; bipartite MCPyV LTA NLS; source: synthetic peptide (solid phase, HPLC purified)) [MCPyV LTA NLSbip peptide]")
"binds"
>>> measured_result("{FITC′-Ahx}-KRKFPDSSTQNSTPPKKNKPA (also called STLPyV LTA cNLS; STLPyV LTA bipartite cNLS) [STLPyV LTA NLSbip peptide]")
"binds"
>>> measured_result("{FITC′-Ahx}-KRSAPEEEPSCSQATPPKKKHA (also called KIPyV LTA cNLS; KIPyV LTA bipartite cNLS) [KIPyV LTA NLSbip peptide]")
"binds"
